# Experiment notes: Half life in mouse at 0.5 mg/kg, iv
# Type: ADME, organism-based
# Experimental conditions: in vivo
Measurement type: half-life (h)
The answer is to be given in h; state only the numeric part.

Name the reported half-life value associated with the compound "CC(C)N(C)c1ccc([C@H]2C[C@@]3(C)[C@@H](CC[C@@]3(O)C#CC(C)(C)C)[C@@H]3CCC4=CC(=O)CC[C@@H]4[C@H]32)cc1" 4.83

====

# Target of assay: Cytochrome P450 3A4 (Homo sapiens, UniProt P08684)
# Sequence (P08684 whole entry): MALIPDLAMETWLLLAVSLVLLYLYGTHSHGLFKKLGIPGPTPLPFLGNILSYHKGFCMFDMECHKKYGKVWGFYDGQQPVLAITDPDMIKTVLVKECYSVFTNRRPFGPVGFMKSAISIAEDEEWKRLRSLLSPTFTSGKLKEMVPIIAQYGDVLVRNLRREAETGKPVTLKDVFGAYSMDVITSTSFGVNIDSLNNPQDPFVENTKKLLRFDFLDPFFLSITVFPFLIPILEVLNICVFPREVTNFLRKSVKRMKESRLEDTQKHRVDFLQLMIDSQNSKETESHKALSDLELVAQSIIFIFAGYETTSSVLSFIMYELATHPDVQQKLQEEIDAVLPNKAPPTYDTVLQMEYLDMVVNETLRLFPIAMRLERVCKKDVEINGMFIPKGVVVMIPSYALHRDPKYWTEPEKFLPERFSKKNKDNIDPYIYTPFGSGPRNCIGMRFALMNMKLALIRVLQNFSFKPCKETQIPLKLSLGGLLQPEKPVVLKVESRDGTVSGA
Measurement type: IC50 (nM)
The answer is to be given in nM; state only the numeric part.

Name the reported IC50 value associated with the molecule "CC(C)N(C)c1ccc([C@H]2C[C@@]3(C)[C@@H](CC[C@@]3(O)C#CC(C)(C)C)[C@@H]3CCC4=CC(=O)CC[C@@H]4[C@H]32)cc1" 1600
